ASSAY_REMARKS: Primary fluorescence-based thiol-reactive (MSTI) qHTS assay for identification of artifact compounds. (AID 1845221); note: nearly all actives have a fitted effect of over 65% in size; note: potency is the fitted concentration of half-maximal effect
EXPERIMENTAL_CONTEXT: MSTI thiol-reactivity probe, 1 h; series mostly up to 53.8 µM
Records with an inconclusive call do not appear. The source made the active and inactive calls. Calls come from the whole dose curve; as a rule, active = well fitted inhibition curve with a large enough effect; inconclusive = small, poorly fitted or top-dose-only effect; inactive = no such curve, though single readings can be large or run the other way. Where a SMILES comes first, the peptide text is derived from it. [ ]: non-standard residue; d: D form. dPhe(4-Cl) = N[C@H](Cc1ccc(Cl)cc1)C(=O)O; d2Nal = N[C@H](Cc1ccc2ccccc2c1)C(=O)O; dCit = NC(=O)NCCC[C@@H](N)C(=O)O; d3Pal = N[C@H](Cc1cccnc1)C(=O)O
MEASURED_QUANTITY: Potency

Answered examples (5):
COMPOUND	Potency
CC(C)=CCC/C(C)=C/CO[C@@H]1O[C@H](CO)[C@@H](OC(=O)/C=C/c2ccc(O)cc2)[C@H](O[C@@H]2O[C@@H](C)[C@H](O)[C@@H](O)[C@H]2O)[C@H]1O	inactive
CC1(C)CC[C@]2(C(=O)O[C@@H]3O[C@H](CO)[C@@H](O)[C@H](O)[C@H]3O)CC[C@]3(C)C(=CCC4[C@@]5(C)C[C@@H](O)[C@H](O)[C@@](C)(CO)C5CC[C@]43C)C2[C@@H]1O (some centres undefined)	3.16 µM (active)
O=C(O)CC1CCC(c2ccc(-c3ccc4nc(C(=O)NCc5ccc(OC(F)(F)F)cc5)cn4c3)cc2)CC1 (centres undefined)	inactive
C=C(C(=O)O)C1CC(O)C2(C)CCCC(=C)C2C1 (centres undefined)	inactive
C=C1CCCC2(C)CC3(OC)OC(=O)C(C)=C3CC12 (centres undefined)	inactive

Query: What Potency value was documented for this compound, `Cc1cccc(S(=O)(=O)N2CCC[C@@H]2CCN2CCC(C)CC2)c1` ?
Response: inactive

Query: # lookup: Potency of C/C(=C\CCC(C)CCO)C(=O)O[C@@H]1[C@@H](O)[C@H](OC2OC=C(C(=O)O)C3CCC(C)(O)C23)O[C@H](CO)[C@H]1O (some centres undefined)
Response: 8.22 µM (active)

Query: Param item = COC(=O)CCSCc1ccc(-c2onc(C)c2NC(=O)OC(C)c2ccccc2Cl)cc1 (centres undefined) ; retrieve measured Potency.
Response: inactive

Query: Request the reported Potency associated with CC(=O)N1CCc2ccc(O)c(OC3OC(COC4OCC(O)(CO)C4O)C(O)C(O)C3O)c2C1Cc1ccc(O)cc1 (centres undefined)
Response: inactive

Query: I have this compound here, `CC(C)CN(C[C@@H](O)[C@H](Cc1ccccc1)NC(=O)O[C@@H]1CO[C@H]2OCC[C@H]21)S(=O)(=O)c1ccc(N)cc1` , and I need its recorded Potency.
Response: inactive

Query: I'd like to know its Potency. The compound in question is `O=C(O)c1cn(C2CC2)c2cc(N3C[C@@H]4C[C@H]3CN4)c(F)cc2c1=O`
Response: inactive

Query: Look up Potency: `COc1ccc(-c2nc(-c3ccc(-c4cccc(Cl)c4)o3)[nH]c2-c2ccc(OC)cc2)cc1`
Response: 4.23 µM (active)

Query: Which Potency value is on record for `NCc1ccc(Nc2ncc(F)c(Nc3ccccc3)n2)cc1` ?
Response: inactive

Query: Potency for CC(=O)N[C@H](Cc1ccc2ccccc2c1)C(=O)N[C@H](Cc1ccc(Cl)cc1)C(=O)N[C@H](Cc1cccnc1)C(=O)N[C@@H](CO)C(=O)N[C@@H](Cc1ccc(O)cc1)C(=O)N[C@H](CCCNC(N)=O)C(=O)N[C@@H](CC(C)C)C(=O)N[C@@H](CCCN=C(N)N)C(=O)N1CCC[C@H]1C(=O)N[C@H](C)C(N)=O (Ac-[d2Nal][dPhe(4-Cl)][d3Pal]SY[dCit]LRP[dA]-NH2) ?
Response: inactive

====

Tested on: Zika virus NS2B-NS3 protease (linked construct)
ASSAY_REMARKS: Primary screen NINDS Rhodamine qHTS for Zika virus inhibitors (AID 1347160); note: nearly all actives have a fitted effect of over 55% in size
EXPERIMENTAL_CONTEXT: purified NS2B-NS3 protease, Rhodamine110 substrate fluorescence; series mostly up to 57.1 µM
Inconclusive results are not listed. The source made the active and inactive calls. Calls follow the shape of the dose curve; as a rule, active = well fitted inhibition curve with a large enough effect; inconclusive = small, poorly fitted or top-dose-only effect; inactive = no such curve, though single readings can be large or run the other way.
Respond only with the outcome that fits, drawn from active, inactive

Query: Check the results log: what was the call for C=C1CC[C@H]2[C@@](C)(CCC(O)[C@@]2(C)CO)[C@@H]1CCC1=CCOC1=O (some centres not stated) ?
Response: inactive

Query: Short answer needed: outcome of this test for NC1CCC(Nc2cc(-c3cccc(NCc4cccc(F)c4)n3)c(Cl)cn2)CC1 (configuration not stated) ?
Response: inactive

Query: What did this assay record as the result for C=C1CCC2C(C)(C(=O)O)CCCC2(C)C1CCC(C)CC(=O)O (configuration not stated) ?
Response: inactive

Query: Could you please tell me the result logged for CCC1C(=O)OC23C=C[C@@H]4C(C(=O)O)=CO[C@H](O[C@@H]12)[C@@H]43 (some centres not stated) in this assay?
Response: inactive

Query: Call for entry `Cc1nc([C@](C)(O)CO)sc1-c1cnc(N)c(O[C@H](C)c2cc(F)ccc2-n2nccn2)c1` :
Response: inactive

Query: Name the outcome recorded for COc1c2c(c(C)c3c1C(=O)OC3)OC1(C)CC(O)C(C(C)(C)O)C(C)(CCC(=O)O)C1C2 (configuration not stated) in the assay.
Response: inactive

Query: Just curious, what result did C=CC(C)(O)C(O)CC1C(C)(O)C(O)C(O)C2C(C)(C)CCCC21C (configuration not stated) get here?
Response: inactive

Query: Dear all, I need the recorded test outcome for CC(C)NCC(C(=O)N1CCN(c2ncnc3c2C(C)CC3O)CC1)c1ccc(Cl)cc1 (configuration not stated) , thank you.
Response: inactive

Query: Which outcome was assigned to `Cc1cc(=O)oc2c(C=O)c(O)ccc12` in this test?
Response: inactive

Query: Test call, this compound: `CC(=O)O[C@H]1CC[C@H](C)[C@@]2(C)[C@H](OC(C)=O)c3c(C)coc3C(=O)[C@H]12`
Response: inactive

====

Recorded max response for the following compounds
System: HEK293
ASSAY_REMARKS: Cytotoxic Profiling of Annotated Libraries Using Quantitative High-Throughput Screening (AID 1296008); note: % is set by controls: 0 for no effect and ±100 for the full control effect; nearly all actives have a fitted effect of over 60% in size
EXPERIMENTAL_CONTEXT: Five cell lines viability, CellTiter-Glo ATP luminescence, 48-72 h; active compounds read low
Results filed as inconclusive are left out.
Give the value, in units of %, as a plain number.

COMPOUND	RESULT_UNIT	max response
CC1=CCC(C(C)(C)O[C@@H]2O[C@H](CO[C@@H]3O[C@@H](C)[C@H](O)[C@@H](O)[C@H]3O)[C@@H](O)[C@H](O)[C@H]2O)CC1 (stereo partly drawn)	%	2.02
C=CC1(C)C=C2CCC3C(C)(C)C(O[C@@H]4O[C@@H](CO)[C@H](O)[C@H]4O)CCC3(C)C2CC1O[C@@H]1O[C@H](C)[C@H](O)[C@H](O)[C@H]1O (stereo partly drawn)	%	-0.0102

Lab note: next compound to report on.
Query: Could you share which max response value was measured for `Cc1[nH]c2ccccc2c1C1=C(NCCc2ccc(F)cc2)C(=O)N(C)C1=O` ?
Response: -22.2

====

ASSAY_REMARKS: Primary qHTS for inhibitors of nuclear receptor binding SET domain protein 2 (NSD2) in an RCH-ACV wild type WT cells (2C) (AID 1645877); note: nearly all actives have a fitted effect of over 70% in size
EXPERIMENTAL_CONTEXT: RCH-ACV (leukaemia line) NSD2 WT (2C) viability, CellTiter-Glo, 72 h; series mostly up to 44.9 µM
Results filed as inconclusive are left out. The source made the active and inactive calls. Calls come from the whole dose curve; as a rule, active = well fitted inhibition curve with a large enough effect; inconclusive = small, poorly fitted or top-dose-only effect; inactive = no such curve, though single readings can be large or run the other way.
Reply using exactly one outcome from YES for active, NO for inactive

These recorded examples may help you get a feel for the data.
COMPOUND	CLASS_ASSIGNMENT
CC12CCC(OC3OC(CO)C(O)C(OC4OC(CO)C(O)C(O)C4O)C3O)CC1=CCC1C2CCC2(C)/C(=C3/COC(=O)C3)CCC12O (centres undefined)	NO
CNC(=O)c1ccccc1Nc1cc(Nc2ccc(N3CCOCC3)cc2OC)ncc1C(F)(F)F	YES
CC(=O)OC1C(O)C2C(C)C3=CC(=O)OC3(O)CC2C2(C)CCCC(C)(CO)C12 (centres undefined)	NO

Could you now look at the following compound, please?
Query: Assay outcome for CC1(C)C2CC=C(COC3OC(COC4OCC(O)(CO)C4O)C(O)C(O)C3O)C1C2 (centres undefined) : what was it?
Response: NO

====

TARGET_OR_TEST_SYSTEM: Guanidinoacetate N-methyltransferase (Homo sapiens) (UniProt Q14353)
ASSAY_REMARKS: Confirmatory Screen for Target Class Profiling of Small Molecule Inhibitors of Methyltransferases (AID 1745852); note: potency is the fitted concentration of half-maximal effect
EXPERIMENTAL_CONTEXT: MTase-Glo luminescence, SAH detection, recombinant enzyme; series mostly up to 57.3 µM
Activity calls are given as the source filed them. The call rests on the fitted dose curve.
Catalogue of compounds with associated Potency

Please review the following examples before continuing.
COMPOUND	TARGET_OR_TEST_SYSTEM	MEASURED_QUANTITY	RECORDED_MEASUREMENT
CCOc1cc2ncc(C#N)c(Nc3ccc(F)c(Cl)c3)c2cc1NC(=O)/C=C/CN(C)C	Guanidinoacetate N-methyltransferase (Homo sapiens) (UniProt Q14353)	Potency	4.82 µM (active)
COc1ccc(-c2cnc3ccc(NCc4ccc(S(N)(=O)=O)cc4)nn23)cc1OC	Guanidinoacetate N-methyltransferase (Homo sapiens) (UniProt Q14353)	Potency	38.3 µM (active)
CC(Oc1cc(-n2cnc3ccc(CN4CCN(C)CC4)cc32)sc1C(N)=O)c1ccccc1C(F)(F)F (centres undefined)	Guanidinoacetate N-methyltransferase (Homo sapiens) (UniProt Q14353)	Potency	30.4 µM (active)

Query: Tell me reported Potency for `Cc1cc(=O)oc2c(C=O)c(O)ccc12` , tested with Guanidinoacetate N-methyltransferase (Homo sapiens) (UniProt Q14353).
Response: 17.1 µM (active)
